# test description: physchem
# test context: simulated intestinal fluid, pH 6.8
measured metric: solubility thermodynamic at 4 h (µM)

molecule: CCCc1nc2c(C)cc(-c3nc4ccccc4n3C)cc2n1Cc1ccc(-c2ccccc2C(=O)O)cc1
measured metric: solubility thermodynamic at 4 h
numeric value: 1.95
--
molecule: CN(C/C=C/C#CC(C)(C)C)Cc1cccc2ccccc12.Cl [TERBINAFINE HYDROCHLORIDE]
measured metric: solubility thermodynamic at 4 h
numeric value: 1.51
--
molecule: CC(/C=C/C=C(\C)C(=O)O[C@@H]1O[C@H](CO[C@@H]2O[C@H](CO)[C@@H](O)[C@H](O)[C@H]2O)[C@@H](O)[C@H](O)[C@H]1O)=C\C=C\C=C(C)\C=C\C=C(/C)C(=O)O[C@@H]1O[C@H](CO[C@@H]2O[C@H](CO)[C@@H](O)[C@H](O)[C@H]2O)[C@@H](O)[C@H](O)[C@H]1O
measured metric: solubility thermodynamic at 4 h
numeric value: 155

Ref: ChEMBL document CHEMBL3400005
